Entry source: patent US9567345B2

Target: CDK9/Cyclin T1 (Homo sapiens)
Sequence (P50750 whole entry): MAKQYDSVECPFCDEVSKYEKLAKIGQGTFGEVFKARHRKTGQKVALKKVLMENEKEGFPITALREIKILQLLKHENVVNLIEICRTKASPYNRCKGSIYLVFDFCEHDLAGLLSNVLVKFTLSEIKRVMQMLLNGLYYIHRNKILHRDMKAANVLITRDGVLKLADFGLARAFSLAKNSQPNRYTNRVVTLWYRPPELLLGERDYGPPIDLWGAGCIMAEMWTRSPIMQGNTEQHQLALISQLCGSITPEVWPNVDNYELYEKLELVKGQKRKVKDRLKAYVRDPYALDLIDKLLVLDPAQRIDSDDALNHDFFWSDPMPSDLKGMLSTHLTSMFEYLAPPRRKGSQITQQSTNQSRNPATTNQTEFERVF
Sequence (O60563 whole entry partner): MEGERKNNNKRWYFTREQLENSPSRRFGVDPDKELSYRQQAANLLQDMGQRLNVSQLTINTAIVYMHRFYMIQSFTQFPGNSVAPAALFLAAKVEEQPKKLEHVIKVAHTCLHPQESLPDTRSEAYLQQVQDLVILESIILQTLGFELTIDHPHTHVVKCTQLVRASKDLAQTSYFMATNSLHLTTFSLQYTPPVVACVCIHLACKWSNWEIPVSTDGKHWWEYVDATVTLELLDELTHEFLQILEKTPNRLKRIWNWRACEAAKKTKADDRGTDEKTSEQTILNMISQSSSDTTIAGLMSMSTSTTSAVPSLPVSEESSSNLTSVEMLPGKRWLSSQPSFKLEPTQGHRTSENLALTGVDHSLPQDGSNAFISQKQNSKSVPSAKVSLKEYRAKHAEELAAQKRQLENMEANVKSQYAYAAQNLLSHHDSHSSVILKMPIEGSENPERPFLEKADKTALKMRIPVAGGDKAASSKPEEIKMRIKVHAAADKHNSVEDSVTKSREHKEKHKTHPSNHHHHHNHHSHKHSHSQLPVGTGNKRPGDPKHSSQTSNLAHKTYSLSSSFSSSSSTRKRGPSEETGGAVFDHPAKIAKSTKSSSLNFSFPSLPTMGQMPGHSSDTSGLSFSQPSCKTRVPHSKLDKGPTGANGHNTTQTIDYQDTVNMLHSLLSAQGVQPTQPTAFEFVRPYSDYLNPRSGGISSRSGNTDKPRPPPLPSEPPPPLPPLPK
Experiment: CDK9 Enzymatic Activity Assay (Lance Kinase Activity Assay, FRET)
Assay type: biochemical
Conditions: Table 5B, class symbols per IC50 [nM] ranges of b581; read-out: CDK9: Selectivity of CDK7 inhibition over CDK9 inhibition
Description: This protocol describes how the Lance Kinase Activity Assay was performed to determine IC50 values of compounds of general formula (I) against CDK/Cyclin complexes. […] It is detected by using a specific EU-labeled anti-phospho peptide antibody. […] For positive controls, 2 μl of DMSO working solution were mixed with 6 μl CDK9/cyclin T1/substrate working solution and 2 μl ATP working solution. Positive and negative controls were calculated from at least 8 different wells. […]
outcome-measure: IC50

CC(C)c1cnn2c(NCc3ccccc3OC(F)F)nc(OC3CCN(C)CC3)nc12 [(VII-72)]
50 to 500 nM
CC(C)c1cnn2c(NCc3ccccc3-n3cccn3)nc(CN3CC(N4CCCC4=O)C3)nc12 [(XXX-8)]
> 2500 nM
CC(C)c1cnn2c(NCc3ccccc3-n3cccn3)nc(CNCCN3CCCC3)nc12 [(XXX-4)]
> 2500 nM

[in] # value lookup — system CDK9/Cyclin T1 (Homo sapiens), readout IC50, item CC(C)c1cnn2c(NCc3ccccc3-n3cccn3)nc(N3CCCC4(CCCCN4)C3)nc12 (stereo not shown) [(VIII-15)]
[out] > 2500 nM

----------
Molecular target: CDK2/CycA (Homo sapiens, UniProt P24941)
Construct: purchased Proqinase
Experiment: CDK2 Enzymatic Activity Assay (Lance Kinase Activity Assay, FRET)
Format: biochemical
Conditions: Table 5B, class symbols per IC50 [nM] ranges of b581; read-out: CDK2: Selectivity of CDK7 inhibition over CDK2 inhibition
Procedure: This protocol describes how the Lance Kinase Activity Assay was performed to determine IC50 values of compounds of general formula (I) against CDK/Cyclin complexes. […] It is detected by using a specific EU-labeled anti-phospho peptide antibody. […] For positive controls, 2 μl of DMSO working solution were mixed with 6 μl CDK2/CycA/substrate working solution and 2 μl ATP working solution. Positive and negative controls were calculated from at least 8 different wells. […]
outcome-measure: IC50

# count of solved cases: 3
CC(C)c1cnn2c(NCc3ccccc3S(=O)(=O)N3CCN(C)CC3)nc(O[C@@H]3CCCNC3)nc12 [(VII-107)]
50 to 500 nM
CC(C)c1cnn2c(NCc3ccccc3-n3cccn3)nc(CN(C)CCN3CCCC3)nc12 [(XXX-3)]
> 2500 nM
CC(C)c1cnn2c(NCc3ccccc3Oc3ccccn3)nc(O[C@@H]3CCCNC3)nc12 [(VII-098)]
500 to 2500 nM

[in] Report IC50 for CC(C)c1cnn2c(NCc3cccc4c3OCCCO4)nc(O[C@@H]3CCCNC3)nc12 [(VII-116)] please.
[out] 50 to 500 nM

[in] Report IC50 for CC(C)c1cnn2c(NCc3ccccc3-c3cccs3)nc(OC3CCNCC3)nc12 [(VII-14)] please.
[out] 50 to 500 nM

[in] Report IC50 for CC(C)c1cnn2c(NCc3cccc4c3ccc[n+]4[O-])nc(O[C@@H]3CCCNC3)nc12 [(VII-30)] please.
[out] 500 to 2500 nM

[in] Report IC50 for CC(C)c1cnn2c(NCc3ccccc3-n3cccn3)nc(OC3CNCCOC3)nc12 (stereo not shown) [(VII-122)] please.
[out] 500 to 2500 nM

[in] Report IC50 for CC(C)c1cnn2c(NCc3ccccc3CN3CCCC3=O)nc(O[C@@H]3CCCNC3)nc12 [(VII-092)] please.
[out] > 2500 nM

[in] Report IC50 for CC(C)c1cnn2c(NCc3ccccc3-n3cccn3)nc(N3CC(N4CCCC4=O)C3)nc12 [(VIII-047)] please.
[out] > 2500 nM

[in] Report IC50 for CC(C)c1cnn2c(NCc3ccccc3-n3cccn3)nc(N3CCC(N)C3)nc12 (stereo not shown) [(VIII-054)] please.
[out] > 2500 nM

----------
Target: CDK9/Cyclin T1 (Homo sapiens)
Assay: CDK9 Enzymatic Activity Assay (Lance Kinase Activity Assay, FRET)
Type: biochemical
Settings: Table 5B, class symbols per IC50 [nM] ranges of b581; read-out: CDK9: Selectivity of CDK7 inhibition over CDK9 inhibition
Listed here: items and their measured IC50.

# count of solved cases: 3
CC(C)c1cnn2c(NCc3ccccc3-c3cccs3)nc(OC3CCN(C)CC3)nc12
> 2500 nM
CC(C)c1cnn2c(NCc3ccccc3-n3cccn3)nc(N3CCC4(CCNC4)CC3)nc12
> 2500 nM
CC(C)c1cnn2c(NCc3ccccc3-c3nnnn3C)nc(N3CCC4(CCCN4)CC3)nc12
> 2500 nM

[in] # value lookup — system CDK9/Cyclin T1 (Homo sapiens), readout IC50, item Cc1ccccc1CNc1nc(OC2CCN(C)CC2)nc2c(C(C)C)cnn12
[out] 50 to 500 nM

[in] # value lookup — system CDK9/Cyclin T1 (Homo sapiens), readout IC50, item CC(C)c1cnn2c(NCc3ccccc3-c3ccccc3)nc(O[C@@H]3CCCNC3)nc12
[out] 50 to 500 nM

[in] # value lookup — system CDK9/Cyclin T1 (Homo sapiens), readout IC50, item CC(C)c1cnn2c(NCc3cccc4cccnc34)nc(O[C@@H]3CCCNC3)nc12
[out] 50 to 500 nM

[in] # value lookup — system CDK9/Cyclin T1 (Homo sapiens), readout IC50, item CC(C)c1cnn2c(NCc3ccccc3-n3cncn3)nc(N[C@@H]3CCCNC3)nc12
[out] 500 to 2500 nM

[in] # value lookup — system CDK9/Cyclin T1 (Homo sapiens), readout IC50, item CC(C)c1cnn2c(NCc3ccccc3-c3cccs3)nc(O[C@@H]3CCCNC3)nc12
[out] 50 to 500 nM

----------
Listed here: items and their measured IC50.
Target: CDK7/CycH/Mat1 (Homo sapiens, UniProt P50613)
Sequence (P50613 whole entry): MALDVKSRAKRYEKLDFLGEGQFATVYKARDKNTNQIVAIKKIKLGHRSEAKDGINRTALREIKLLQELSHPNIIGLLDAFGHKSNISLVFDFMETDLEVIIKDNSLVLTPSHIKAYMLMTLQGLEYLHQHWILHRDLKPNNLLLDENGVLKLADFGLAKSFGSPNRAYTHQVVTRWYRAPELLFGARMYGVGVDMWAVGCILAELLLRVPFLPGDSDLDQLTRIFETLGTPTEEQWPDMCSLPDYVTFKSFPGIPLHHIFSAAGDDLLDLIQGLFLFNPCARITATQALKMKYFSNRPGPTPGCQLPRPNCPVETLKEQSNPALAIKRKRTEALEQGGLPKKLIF
Experiment: CDK7 Enzymatic Activity Assay (Lance Kinase Activity Assay, FRET)
Assay type: biochemical
Conditions: CDK7/CycH/Mat1, 25 μM ATP final; class ranges; read-out: CDK7: IC50 [nM] for CDK7 inhibition

CC(C)c1cnn2c(N[C@@H](C)c3cccc4ccccc34)nc(OC3CCN(C)CC3)nc12 [(VII-69)]
< 5 nM
CC(C)c1cnn2c(NCc3ccccc3N3CCC3=O)nc(O[C@@H]3CCCNC3)nc12 [(VII-40)]
> 25 nM

[in] # value lookup — system CDK7/CycH/Mat1 (Homo sapiens, UniProt P50613), readout IC50, item Cc1cccc(Cl)c1CNc1nc(OC2CCN(C)CC2)nc2c(C(C)C)cnn12 [(VII-62)]
[out] 10 to 25 nM

[in] # value lookup — system CDK7/CycH/Mat1 (Homo sapiens, UniProt P50613), readout IC50, item CC(C)c1cnn2c(NCc3ccccc3N3CCCC3=O)nc(N3CCC4(CCCN4)CC3)nc12 [(VIII-38)]
[out] < 5 nM

[in] # value lookup — system CDK7/CycH/Mat1 (Homo sapiens, UniProt P50613), readout IC50, item Cc1nccn1-c1ccccc1CNc1nc(OC2CCNCC2)nc2c(C(C)C)cnn12 [(VII-24)]
[out] < 5 nM

----------
Listed here: items and their measured IC50.
Biological target: CDK9/Cyclin T1 (Homo sapiens)
Experiment: CDK9 Enzymatic Activity Assay (Lance Kinase Activity Assay, FRET)
Assay type: biochemical
Settings: Table 5B, class symbols per IC50 [nM] ranges of b581; read-out: CDK9: Selectivity of CDK7 inhibition over CDK9 inhibition

[in] # value lookup — system CDK9/Cyclin T1 (Homo sapiens), readout IC50, item CC(C)c1cnn2c(NCc3ccccc3-n3cccn3)nc(N3CCCC(N)C3)nc12 (stereo not shown)
[out] > 2500 nM

----------
Target: CDK2/CycA (Homo sapiens, UniProt P24941)
Construct: purchased Proqinase
Test: CDK2 Enzymatic Activity Assay (Lance Kinase Activity Assay, FRET)
Format: biochemical
Settings: Table 5B, class symbols per IC50 [nM] ranges of b581; read-out: CDK2: Selectivity of CDK7 inhibition over CDK2 inhibition
Procedure: This protocol describes how the Lance Kinase Activity Assay was performed to determine IC50 values of compounds of general formula (I) against CDK/Cyclin complexes. […] It is detected by using a specific EU-labeled anti-phospho peptide antibody. […] For positive controls, 2 μl of DMSO working solution were mixed with 6 μl CDK2/CycA/substrate working solution and 2 μl ATP working solution. Positive and negative controls were calculated from at least 8 different wells. […]
Listed here: items and their measured IC50.

# count of solved cases: 5
CC(C)c1cnn2c(NCc3ccccc3-n3cccn3)nc(N3CCC4(CCCN4)CC3)nc12
500 to 2500 nM
Cc1nccn1-c1ccccc1CNc1nc(O[C@@H]2CCCNC2)nc2c(C(C)C)cnn12
500 to 2500 nM
CC(C)c1cnn2c(NCc3ccccc3-c3nnn(C)n3)nc(O[C@@H]3CCCNC3)nc12
< 50 nM
CC(C)c1cnn2c(NCc3ccccc3NC(=O)NCc3ccccc3)nc(O[C@@H]3CCCNC3)nc12
> 2500 nM
CC(C)c1cnn2c(NCc3ccccc3-n3cccn3)nc(OC3COC4(CCNCC4)C3)nc12 (stereo not shown) [(VII-05)]
> 2500 nM

[in] Report IC50 for CC(C)c1cnn2c(NCc3ccccc3-n3cccn3)nc(NCCN3CCCC3)nc12 please.
[out] > 2500 nM

[in] Report IC50 for CC(C)c1cnn2c(NCc3ccccc3C3=CCCCC3)nc(O[C@@H]3CCCNC3)nc12 please.
[out] > 2500 nM
